# target-of-assay: Lethal factor (Bacillus anthracis) (UniProt P15917)
# Sequence (P15917 whole entry, looked up): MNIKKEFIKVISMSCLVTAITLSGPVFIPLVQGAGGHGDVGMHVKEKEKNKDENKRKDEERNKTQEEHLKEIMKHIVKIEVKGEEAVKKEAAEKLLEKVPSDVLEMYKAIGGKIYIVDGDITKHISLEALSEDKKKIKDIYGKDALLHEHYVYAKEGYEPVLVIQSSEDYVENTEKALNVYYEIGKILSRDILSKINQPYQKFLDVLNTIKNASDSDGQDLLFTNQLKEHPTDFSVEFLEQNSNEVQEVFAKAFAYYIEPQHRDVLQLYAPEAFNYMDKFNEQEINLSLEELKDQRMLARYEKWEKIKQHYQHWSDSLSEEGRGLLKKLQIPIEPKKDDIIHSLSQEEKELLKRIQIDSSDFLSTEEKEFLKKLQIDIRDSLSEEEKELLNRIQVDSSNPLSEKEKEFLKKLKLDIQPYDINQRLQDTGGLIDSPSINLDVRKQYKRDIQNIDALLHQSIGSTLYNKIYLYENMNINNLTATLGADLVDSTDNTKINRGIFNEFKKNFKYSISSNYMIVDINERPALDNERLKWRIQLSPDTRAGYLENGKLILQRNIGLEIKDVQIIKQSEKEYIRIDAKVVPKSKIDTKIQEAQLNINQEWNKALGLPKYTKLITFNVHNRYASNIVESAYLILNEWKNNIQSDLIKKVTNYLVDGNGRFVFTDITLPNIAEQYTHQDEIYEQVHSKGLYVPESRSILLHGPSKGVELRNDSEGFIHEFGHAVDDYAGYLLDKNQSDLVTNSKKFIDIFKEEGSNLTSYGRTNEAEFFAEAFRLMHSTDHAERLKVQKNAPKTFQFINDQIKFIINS
# protocol: Bacillus anthracis LF protease inhibitors, dose response, biochemical, multiplex microsphere (AID 720672)
# condition-label: multiplex microsphere LF protease substrate cleavage, flow cytometry
The source made the active and inactive calls. No rule for the calls is given here.
readout: IC50

INSERT INTO results (mol_smiles, readout, obs_value) VALUES
  ('CCS(=O)(=O)Nc1ccc2nc(-c3ccccc3)c(-c3ccccc3)nc2c1', 'IC50', '> 20 µM (inactive)'),
  ('Cc1ccc(-c2nc3nc(-c4ccc(OC(F)(F)F)cc4)cn3nc2-c2ccc(C)cc2)cc1', 'IC50', '> 20 µM (inactive)'),
  ('Fc1ccc(-c2nc3nc(-c4ccccc4)cn3nc2-c2ccc(F)cc2)cc1', 'IC50', '9.6 µM'),
  ('COC(=O)Nc1ccc2nc(-c3cccs3)c(-c3cccs3)nc2c1', 'IC50', '> 20 µM (inactive)'),
  ('CCCS(=O)(=O)Nc1ccc2nc(-c3cccs3)c(-c3cccs3)nc2c1', 'IC50', '> 20 µM (inactive)'),
  ('Cc1ccc(-c2cn3nc(-c4ccc(C)cc4)c(-c4ccc(C)cc4)nc3n2)cc1', 'IC50', '5.1 µM'),
  ('O=C(Nc1ccc2nc(-c3ccccc3)c(-c3ccccc3)nc2c1)C1CCCC1', 'IC50', '> 20 µM (inactive)'),
  ('COc1ccc(-c2cn3nc(-c4ccc(F)cc4)c(-c4ccc(F)cc4)nc3n2)cc1', 'IC50', '6.5 µM'),
  ('Cc1ccc(-c2cn3nc(-c4ccc(F)cc4)c(-c4ccc(F)cc4)nc3n2)cc1', 'IC50', '7.2 µM'),
  ('COc1ccc(-c2nc3nc(-c4ccc(C#N)cc4)cn3nc2-c2ccc(OC)cc2)cc1', 'IC50', '> 20 µM (inactive)'),
  ('CCOC(=O)Nc1ccc2nc(-c3ccccc3)c(-c3ccccc3)nc2c1', 'IC50', '> 20 µM (inactive)'),
  ('COc1ccc(-c2nc3nc(-c4cccc(OC)c4)cn3nc2-c2ccc(OC)cc2)cc1', 'IC50', '10.1 µM'),
  ('CCCCOC(=O)Nc1ccc2nc(-c3ccccc3)c(-c3ccccc3)nc2c1', 'IC50', '> 20 µM (inactive)'),
  ('O=S(=O)(Nc1ccc2nc(-c3ccccc3)c(-c3ccccc3)nc2c1)C1CC1', 'IC50', '> 20 µM (inactive)'),
  ('COc1ccccc1-c1cn2nc(-c3ccc(F)cc3)c(-c3ccc(F)cc3)nc2n1', 'IC50', '5.4 µM'),
  ('Cc1ccc(-c2nc3nc(-c4cccc(F)c4)cn3nc2-c2ccc(C)cc2)cc1', 'IC50', '3.7 µM'),
  ('CC(C)CS(=O)(=O)Nc1ccc2nc(-c3cccs3)c(-c3cccs3)nc2c1', 'IC50', '> 20 µM (inactive)'),
  ('O=C(Nc1ccc2nc(-c3cccs3)c(-c3cccs3)nc2c1)C1CC1', 'IC50', '> 20 µM (inactive)'),
  ('COc1ccc(-c2nc3nc(-c4ccc(S(C)(=O)=O)cc4)cn3nc2-c2ccc(OC)cc2)cc1', 'IC50', '> 20 µM (inactive)'),
  ('CCC(=O)Nc1ccc2nc(-c3ccccc3)c(-c3ccccc3)nc2c1', 'IC50', '> 20 µM (inactive)');

====

# target-of-assay: Lethal factor (Bacillus anthracis)
# protocol: Bacillus anthracis LF protease inhibitors, dose response, biochemical, multiplex microsphere (AID 720672)
# condition-label: multiplex microsphere LF protease substrate cleavage, flow cytometry
The source made the active and inactive calls. How the calls were made is not given here.
Classes used: active, inactive

INSERT INTO assay_data (mol_smiles, category) VALUES
  ('CC(=O)Nc1ccc2nc(-c3ccccc3)c(-c3ccccc3)nc2c1', 'inactive'),
  ('CCC(=O)Nc1ccc2nc(-c3cccs3)c(-c3cccs3)nc2c1', 'inactive'),
  ('COc1ccc(-c2cn3nc(-c4ccc(F)cc4)c(-c4ccc(F)cc4)nc3n2)c(OC)c1', 'active'),
  ('COc1ccc(-c2cn3nc(-c4ccc(C)cc4)c(-c4ccc(C)cc4)nc3n2)cc1', 'inactive'),
  ('COc1cccc(-c2cn3nc(-c4ccccc4)c(-c4ccccc4)nc3n2)c1', 'active'),
  ('COc1ccc(-c2nc3nc(-c4ccccc4)cn3nc2-c2ccc(OC)cc2)cc1', 'active'),
  ('O=C(Nc1ccc2nc(-c3cccs3)c(-c3cccs3)nc2c1)OCc1ccccc1', 'inactive'),
  ('CCOC(=O)Nc1ccc2nc(-c3cccs3)c(-c3cccs3)nc2c1', 'inactive'),
  ('O=C(Nc1ccc2nc(-c3cccs3)c(-c3cccs3)nc2c1)C1CCC1', 'inactive'),
  ('COC(=O)Nc1ccc2nc(-c3ccccc3)c(-c3ccccc3)nc2c1', 'inactive');

====

# target-of-assay: Lethal factor (Bacillus anthracis)
# protocol: Bacillus anthracis LF protease inhibitors, dose response, biochemical, multiplex microsphere (AID 720672)
# condition-label: multiplex microsphere LF protease substrate cleavage, flow cytometry
Calls of active or inactive are those of the source. No rule for the calls is given here.
Classes used: active, inactive

INSERT INTO assay_data (compound, category) VALUES
  ('CCNC(=O)Nc1ccc2nc(-c3ccccc3)c(-c3ccccc3)nc2c1', 'inactive'),
  ('Cc1ccc(-c2nc3nc(-c4ccccc4)cn3nc2-c2ccc(C)cc2)cc1', 'active'),
  ('COc1ccccc1-c1cn2nc(-c3ccc(C)cc3)c(-c3ccc(C)cc3)nc2n1', 'active'),
  ('CC(C)(C)C(=O)Nc1ccc2nc(-c3ccccc3)c(-c3ccccc3)nc2c1', 'inactive'),
  ('Fc1ccc(-c2nc3nc(-c4cccc(F)c4)cn3nc2-c2ccc(F)cc2)cc1', 'active'),
  ('O=S(=O)(Nc1ccc2nc(-c3cccs3)c(-c3cccs3)nc2c1)C1CC1', 'inactive'),
  ('CC(C)NC(=O)Nc1ccc2nc(-c3ccccc3)c(-c3ccccc3)nc2c1', 'inactive'),
  ('COc1ccc(-c2nc3nc(-c4ccc(C)cc4)cn3nc2-c2ccc(OC)cc2)cc1', 'inactive'),
  ('Cc1ccc(-c2nc3nc(-c4ccc(S(C)(=O)=O)cc4)cn3nc2-c2ccc(C)cc2)cc1', 'inactive'),
  ('CC(Oc1ccccc1)C(=O)Nc1ccc2nc(-c3ccccc3)c(-c3ccccc3)nc2c1 (stereo not given)', 'inactive'),
  ('Cc1ccc(-c2nc3nc(-c4ccc(C#N)cc4)cn3nc2-c2ccc(C)cc2)cc1', 'inactive'),
  ('COc1ccccc1-c1cn2nc(-c3ccccc3)c(-c3ccccc3)nc2n1', 'inactive'),
  ('COc1ccc(-c2cn3nc(-c4ccc(C)cc4)c(-c4ccc(C)cc4)nc3n2)c(OC)c1', 'inactive'),
  ('O=C(Nc1ccc2nc(-c3ccccc3)c(-c3ccccc3)nc2c1)C1CC1', 'inactive'),
  ('COc1ccc(-c2nc3nc(-c4cccc(F)c4)cn3nc2-c2ccc(OC)cc2)cc1', 'active'),
  ('N#Cc1ccc(-c2cn3nc(-c4ccccc4)c(-c4ccccc4)nc3n2)cc1', 'inactive'),
  ('CCCCOC(=O)Nc1ccc2nc(-c3cccs3)c(-c3cccs3)nc2c1', 'active'),
  ('O=C(Nc1ccc2nc(-c3ccccc3)c(-c3ccccc3)nc2c1)OCc1ccccc1', 'inactive'),
  ('COc1ccc(-c2nc3nc(-c4ccc(OC)cc4OC)cn3nc2-c2ccc(OC)cc2)cc1', 'inactive'),
  ('CC(C)OC(=O)Nc1ccc2nc(-c3ccccc3)c(-c3ccccc3)nc2c1', 'inactive');

====

# target-of-assay: Lethal factor (Bacillus anthracis)
# protocol: Bacillus anthracis LF protease inhibitors, dose response, biochemical, multiplex microsphere (AID 720672)
# condition-label: multiplex microsphere LF protease substrate cleavage, flow cytometry
The source made the active and inactive calls. How the calls were made is not given here.
Classes used: True for active, False for inactive

INSERT INTO assay_data (mol_smiles, category) VALUES
  ('N#Cc1ccc(-c2cn3nc(-c4ccc(F)cc4)c(-c4ccc(F)cc4)nc3n2)cc1', 'False'),
  ('CCCS(=O)(=O)Nc1ccc2nc(-c3ccccc3)c(-c3ccccc3)nc2c1', 'False'),
  ('Fc1ccc(-c2cn3nc(-c4ccccc4)c(-c4ccccc4)nc3n2)cc1', 'False'),
  ('COc1ccc(-c2cn3nc(-c4ccc(OC)cc4)c(-c4ccc(OC)cc4)nc3n2)cc1', 'False'),
  ('CCCOC(=O)Nc1ccc2nc(-c3ccccc3)c(-c3ccccc3)nc2c1', 'False'),
  ('O=C(Nc1ccc2nc(-c3cccs3)c(-c3cccs3)nc2c1)C1CCCC1', 'False'),
  ('CC(C)NC(=O)Nc1ccc2nc(-c3cccs3)c(-c3cccs3)nc2c1', 'False'),
  ('COc1ccc(-c2nc3nc(-c4ccc(OC(F)(F)F)cc4)cn3nc2-c2ccc(OC)cc2)cc1', 'True'),
  ('COc1ccc(-c2nc3nc(-c4ccc(F)cc4)cn3nc2-c2ccc(OC)cc2)cc1', 'True'),
  ('Clc1ccc(-c2cn3nc(-c4ccccc4)c(-c4ccccc4)nc3n2)c(Cl)c1', 'False');
